Items are presented alongside their recorded solubility.
# test-summary: Solubility of Diamine in various kinds of solvents
# Type: physicochemical
# conditions-used: organic solvent or mixture, thermodynamic from solid; Sample 30 mg/solvent 2 mL; Chloroform; read-out: Solubility in Chloroform

// below: answered compounds
In [3]: df
Out[3]:
                                   compound  value_kind  observed_value
0  Cc1cc(OC(=O)c2cccc(N)c2)c(C)c(C)c1OC(=O)c1cccc(N)c1  solubility      > 15 mg/mL
1  Cc1cc(OC(=O)c2ccc(N)cc2)ccc1OC(=O)c1ccc(N)cc1 [Com. Ex. 2, 2,5-bis(4-aminobenzoyloxy)toluene, reference compound]  solubility      < 15 mg/mL
2  Nc1cccc(C(=O)Oc2ccc(C(c3ccc(OC(=O)c4cccc(N)c4)cc3)(C(F)(F)F)C(F)(F)F)cc2)c1  solubility      < 15 mg/mL
3  Nc1ccc(C(=O)Oc2ccc(OC(=O)c3ccc(N)cc3)cc2)cc1 [Com. Ex. 1, 1,4-bis(4-aminobenzoyloxy)benzene, reference compound]  solubility      < 15 mg/mL
4  Cc1cc(OC(=O)c2cccc(N)c2)ccc1OC(=O)c1cccc(N)c1  solubility      > 15 mg/mL

QUERY: I am curious: what solubility value has been reported for Nc1cccc(C(=O)Oc2ccc(S(=O)(=O)c3ccc(OC(=O)c4cccc(N)c4)cc3)cc2)c1 [Example 4, bis[4-(3-aminobenzoyloxy)phenyl]sulfone] ?
RESULT: < 15 mg/mL

---

Items are presented alongside their recorded solubility.
# test-summary: Solubility of Diamine in various kinds of solvents
# Format: physicochemical
# conditions-used: organic solvent or mixture, thermodynamic from solid; Sample 30 mg/solvent 2 mL; THF; read-out: Solubility in THF

// below: answered compounds
>>> print(df.to_string())
                                   compound  observed_value
0  Nc1cccc(C(=O)Oc2ccc(C(c3ccc(OC(=O)c4cccc(N)c4)cc3)(C(F)(F)F)C(F)(F)F)cc2)c1      > 15 mg/mL
1  Cc1cc(OC(=O)c2ccc(N)cc2)ccc1OC(=O)c1ccc(N)cc1 [Com. Ex. 2, 2,5-bis(4-aminobenzoyloxy)toluene, reference compound]      < 15 mg/mL
2  Cc1cc(OC(=O)c2cccc(N)c2)ccc1OC(=O)c1cccc(N)c1      > 15 mg/mL
3  Nc1ccc(C(=O)Oc2ccc(OC(=O)c3ccc(N)cc3)cc2)cc1 [Com. Ex. 1, 1,4-bis(4-aminobenzoyloxy)benzene, reference compound]      < 15 mg/mL
4  Cc1cc(OC(=O)c2cccc(N)c2)c(C)c(C)c1OC(=O)c1cccc(N)c1      > 15 mg/mL

QUERY: I am curious: what solubility value has been reported for Nc1cccc(C(=O)Oc2ccc(S(=O)(=O)c3ccc(OC(=O)c4cccc(N)c4)cc3)cc2)c1 [Example 4, bis[4-(3-aminobenzoyloxy)phenyl]sulfone] ?
RESULT: < 15 mg/mL

---

Items are presented alongside their recorded solubility.
# test-summary: Solubility of Diamine in various kinds of solvents
# Assay type: physicochemical
# conditions-used: organic solvent or mixture, thermodynamic from solid; Sample 30 mg/solvent 2 mL; DMSO (dimethylsulfoxide); read-out: Solubility in DMSO

// below: answered compounds
                                   compound  value_kind  observed_value
0  Cc1cc(OC(=O)c2cccc(N)c2)ccc1OC(=O)c1cccc(N)c1  solubility      > 15 mg/mL
1  Cc1cc(OC(=O)c2cccc(N)c2)c(C)c(C)c1OC(=O)c1cccc(N)c1  solubility      > 15 mg/mL
2  Nc1cccc(C(=O)Oc2ccc(S(=O)(=O)c3ccc(OC(=O)c4cccc(N)c4)cc3)cc2)c1 [Example 4, bis[4-(3-aminobenzoyloxy)phenyl]sulfone]  solubility      > 15 mg/mL

QUERY: I am curious: what solubility value has been reported for Nc1cccc(C(=O)Oc2ccc(C(c3ccc(OC(=O)c4cccc(N)c4)cc3)(C(F)(F)F)C(F)(F)F)cc2)c1 ?
RESULT: > 15 mg/mL

QUERY: I am curious: what solubility value has been reported for Cc1cc(OC(=O)c2ccc(N)cc2)ccc1OC(=O)c1ccc(N)cc1 [Com. Ex. 2, 2,5-bis(4-aminobenzoyloxy)toluene, reference compound] ?
RESULT: < 15 mg/mL

QUERY: I am curious: what solubility value has been reported for Nc1ccc(C(=O)Oc2ccc(OC(=O)c3ccc(N)cc3)cc2)cc1 [Com. Ex. 1, 1,4-bis(4-aminobenzoyloxy)benzene, reference compound] ?
RESULT: < 15 mg/mL
